Measured melting point, listed per entry for reference.

CCCCCCCOc1ccc(C(c2ccccc2)(c2ccccc2)c2ccc(OCCCCCCC)cc2)cc1; 103 to 105 °C
CCCCCCOc1ccc(C(c2ccccc2)(c2ccccc2)c2ccc(OCCCCCC)cc2)cc1; 120 to 122 °C
CCCCCCCCOc1ccc(C(c2ccccc2)(c2ccccc2)c2ccc(OCCCCCCCC)cc2)cc1; 84.5 to 86.5 °C

Okay, now this compound:
Q: What value of measured melting point is listed for CCCCCOc1ccc(C(c2ccccc2)(c2ccccc2)c2ccc(OCCCCC)cc2)cc1 ?
Result: 110 to 113 °C
